The values you see were collected from the RNAGym collection of RNA variant scans (doi:10.1038/s41586-018-0170-7).

Reported values of yeast fitness (ln) for individual entries
B1: tRNA (parent)
chain: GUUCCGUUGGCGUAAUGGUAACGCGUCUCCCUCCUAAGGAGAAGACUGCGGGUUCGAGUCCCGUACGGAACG

Variants of: B1
Assay: yeast fitness, log relative to wild type (ln ratio); higher = fitter; tRNA-Arg(CCU), competitive growth, 37 C, 1 M NaCl
QUANTITY KIND: yeast fitness (ln)

> print(dat)
                            primary.sequence  result.value
 1  GCUCCGUUGGCGUAAUGGUAACGCGUCUCCCUCCUAAGGAGAAGACUGCGGGUUCGAGUCCCGUAUGGGUUG [U2C C66U A69G A70U C71U]        -0.404
 2  AUUCCGUUGGCGUAAUGGUAACGCGUCUCCCUCCUAAGGAGACGACUGCGGGUUCGAGUCCCGUACGGAACG [G1A A43C]        -0.119
 3  GGUCCGUUGGCGUAAUGGUAACGCGUUUCCCUCCUAAGGAGACGAUUGCGGGUUCGAGUCCCGUAUGGGGUG [U2G C27U A43C C46U C66U A69G A70G C71U]        -0.249
 4  GGUCCAUUGGCGUAAUGGUAACGCGUCUCCCUCCUAAGGAGAAGAUUGCGGGUUCGAGUCCCGUAUGGAACG [U2G G6A C46U C66U]       -0.0595
 5  ACUCCUUUGGCGUAAUGGUAACGCGUCUCCCUCCUAAGGAGAAGAUUGCGGGUUCGAGUCCCGUACGGAAUG [G1A U2C G6U C46U C71U]        -0.111
 6  ACUCCUUUGGCGUAAUGGUAACGCGUUUCCCUCCUAAGGAGACGAUUGCGGGUUCGAGUCCCGUACGGGGCG [G1A U2C G6U C27U A43C C46U A69G A70G]        -0.297
 7  AGUCCGUUGGCGUAAUGGUAACGCGUUUCCCUCCUAAGGAGACGACUGCGGGUUCGAGUCCCGUACGGGAUG [G1A U2G C27U A43C A69G C71U]         -0.37
 8  GUUCCUUUGGCGUAAUGGUAACGCGUUUCCCUCCUAAGGAGAAGAUUGCGGGUUCGAGUCCCGUAAGGGGCG [G6U C27U C46U C66A A69G A70G]        -0.243
 9  GGUCCUUUGGCGUAAUGGUAACGCGUUUCCCUCCUAAGGAGACGAUUGCGGGUUCGAGUCCCGUAUGGAACG [U2G G6U C27U A43C C46U C66U]        -0.262
10  ACUCCUUUGGCGUAAUGGUAACGCGUUUCCCUCCUAAGGAGAAGACUGCGGGUUCGAGUCCCGUACGGAUUG [G1A U2C G6U C27U A70U C71U]        -0.287
11  GCUCCUUUGGCGUAAUGGUAACGCGUUUCCCUCCUAAGGAGAAGAUUGCGGGUUCGAGUCCCGUAUGGGUUG [U2C G6U C27U C46U C66U A69G A70U C71U]        -0.546
12  GCUCCUUUGGCGUAAUGGUAACGCGUUUCCCUCCUAAGGAGACGACUGCGGGUUCGAGUCCCGUAUGGGAUG [U2C G6U C27U A43C C66U A69G C71U]        -0.522
13  GUUCCGUUGGCGUAAUGGUAACGCGUCUCCCUCCUAAGGAGACGAUUGCGGGUUCGAGUCCCGUAAGGGUUG [A43C C46U C66A A69G A70U C71U]        -0.341
14  ACUCCUUUGGCGUAAUGGUAACGCGUUUCCCUCCUAAGGAGACGACUGCGGGUUCGAGUCCCGUAUGGGUUG [G1A U2C G6U C27U A43C C66U A69G A70U C71U]         -0.42
15  AUUCCGUUGGCGUAAUGGUAACGCGUCUCCCUCCUAAGGAGACGAUUGCGGGUUCGAGUCCCGUACGGGGUG [G1A A43C C46U A69G A70G C71U]         -0.13
16  GCUCCGUUGGCGUAAUGGUAACGCGUUUCCCUCCUAAGGAGACGACUGCGGGUUCGAGUCCCGUAAGGAACG [U2C C27U A43C C66A]        -0.155
17  AUUCCGUUGGCGUAAUGGUAACGCGUUUCCCUCCUAAGGAGACGAUUGCGGGUUCGAGUCCCGUACGGAACG [G1A C27U A43C C46U]        -0.131
18  ACUCCAUUGGCGUAAUGGUAACGCGUCUCCCUCCUAAGGAGAAGAUUGCGGGUUCGAGUCCCGUAUGGGUUG [G1A U2C G6A C46U C66U A69G A70U C71U]        -0.339
19  GCUCCAUUGGCGUAAUGGUAACGCGUUUCCCUCCUAAGGAGAAGACUGCGGGUUCGAGUCCCGUACGGGAUG [U2C G6A C27U A69G C71U]       -0.0988
20  GUUCCGUUGGCGUAAUGGUAACGCGUUUCCCUCCUAAGGAGAAGACUGCGGGUUCGAGUCCCGUAAGGGGUG [C27U C66A A69G A70G C71U]        -0.191
21  ACUCCGUUGGCGUAAUGGUAACGCGUUUCCCUCCUAAGGAGAAGAUUGCGGGUUCGAGUCCCGUAUGGGGUG [G1A U2C C27U C46U C66U A69G A70G C71U]        -0.174
22  GUUCCGUUGGCGUAAUGGUAACGCGUUUCCCUCCUAAGGAGACGACUGCGGGUUCGAGUCCCGUACGGGGUG [C27U A43C A69G A70G C71U]        -0.142
23  GUUCCGUUGGCGUAAUGGUAACGCGUUUCCCUCCUAAGGAGACGACUGCGGGUUCGAGUCCCGUAUGGAUCG [C27U A43C C66U A70U]        -0.147
24  GGUCCUUUGGCGUAAUGGUAACGCGUUUCCCUCCUAAGGAGACGAUUGCGGGUUCGAGUCCCGUAUGGGGUG [U2G G6U C27U A43C C46U C66U A69G A70G C71U]        -0.369
25  AUUCCUUUGGCGUAAUGGUAACGCGUCUCCCUCCUAAGGAGAAGACUGCGGGUUCGAGUCCCGUACGGAGCG [G1A G6U A70G]        -0.192
26  GCUCCGUUGGCGUAAUGGUAACGCGUUUCCCUCCUAAGGAGACGAUUGCGGGUUCGAGUCCCGUAAGGGAUG [U2C C27U A43C C46U C66A A69G C71U]         -0.41
27  GGUCCGUUGGCGUAAUGGUAACGCGUUUCCCUCCUAAGGAGAAGAUUGCGGGUUCGAGUCCCGUAAGGGUUG [U2G C27U C46U C66A A69G A70U C71U]        -0.383
28  GGUCCUUUGGCGUAAUGGUAACGCGUUUCCCUCCUAAGGAGAAGAUUGCGGGUUCGAGUCCCGUAAGGGGUG [U2G G6U C27U C46U C66A A69G A70G C71U]         -0.25
29  ACUCCUUUGGCGUAAUGGUAACGCGUCUCCCUCCUAAGGAGACGAUUGCGGGUUCGAGUCCCGUACGGGGCG [G1A U2C G6U A43C C46U A69G A70G]        -0.126
30  AGUCCGUUGGCGUAAUGGUAACGCGUUUCCCUCCUAAGGAGAAGAUUGCGGGUUCGAGUCCCGUAAGGAACG [G1A U2G C27U C46U C66A]       -0.0584
31  AGUCCAUUGGCGUAAUGGUAACGCGUUUCCCUCCUAAGGAGACGAUUGCGGGUUCGAGUCCCGUACGGAAUG [G1A U2G G6A C27U A43C C46U C71U]         -0.42
32  AUUCCGUUGGCGUAAUGGUAACGCGUCUCCCUCCUAAGGAGACGAUUGCGGGUUCGAGUCCCGUACGGGGCG [G1A A43C C46U A69G A70G]        -0.104
33  AUUCCGUUGGCGUAAUGGUAACGCGUCUCCCUCCUAAGGAGACGAUUGCGGGUUCGAGUCCCGUAUGGGUCG [G1A A43C C46U C66U A69G A70U]        -0.259
34  GCUCCGUUGGCGUAAUGGUAACGCGUUUCCCUCCUAAGGAGAAGAUUGCGGGUUCGAGUCCCGUACGGAACG [U2C C27U C46U]       -0.0168
35  GGUCCGUUGGCGUAAUGGUAACGCGUUUCCCUCCUAAGGAGAAGAUUGCGGGUUCGAGUCCCGUAUGGGUUG [U2G C27U C46U C66U A69G A70U C71U]        -0.376
36  GUUCCGUUGGCGUAAUGGUAACGCGUCUCCCUCCUAAGGAGAAGAUUGCGGGUUCGAGUCCCGUACGGGAUG [C46U A69G C71U]      -0.00543
37  GUUCCGUUGGCGUAAUGGUAACGCGUCUCCCUCCUAAGGAGAAGAUUGCGGGUUCGAGUCCCGUAAGGGGUG [C46U C66A A69G A70G C71U]       -0.0571
38  AGUCCUUUGGCGUAAUGGUAACGCGUUUCCCUCCUAAGGAGACGAUUGCGGGUUCGAGUCCCGUAUGGAGCG [G1A U2G G6U C27U A43C C46U C66U A70G]        -0.564
39  ACUCCGUUGGCGUAAUGGUAACGCGUCUCCCUCCUAAGGAGAAGACUGCGGGUUCGAGUCCCGUACGGGGUG [G1A U2C A69G A70G C71U]       -0.0058
